Tested on: 966289-007-R4-J1-PDC complex spheroid viability
Assay: Anticancer human tumor 966289-007-R4-J1-PDC patient-derived pancreatic adenocarcinoma cell line growth inhibition [RAS]
Details: second compound 0.3 µM; first compound 1 µM; hits give low values
METRIC: viability, T/C

Past entries and their recorded results:
CCN1CCN(Cc2ccc(Nc3ncc(F)c(-c4cc(F)c5nc(C)n(C(C)C)c5c4)n3)nc2)CC1 + CCn1c(-c2cccnc2C(C)OC)c2c3cc(ccc31)N1CCOC(CC(NC(=O)C(C(C)C)N(C)C(=O)C3(F)CCN(C(=O)C#CC(C)(C)N(C)C)CC3)C(=O)N3CCCC(N3)C(=O)OCC(C)(C)C2)C1 | 81.3%
Cc1nc(N2CCC3(CC2)COC(C)C3N)c(CO)nc1Sc1ccnc(N)c1Cl (centres undefined) + CCn1c(-c2cccnc2C(C)OC)c2c3cc(ccc31)N1CCOC(CC(NC(=O)C(C(C)C)N(C)C(=O)C3(F)CCN(C(=O)C#CC(C)(C)N(C)C)CC3)C(=O)N3CCCC(N3)C(=O)OCC(C)(C)C2)C1 | 144%
C[C@@H](NC(=O)c1ncnc(N)c1Cl)c1ncc(C(=O)Nc2cc(C(F)(F)F)c(Cl)cn2)s1 + CCn1c(-c2cccnc2C(C)OC)c2c3cc(ccc31)N1CCOC(CC(NC(=O)C(C(C)C)N(C)C(=O)C3(F)CCN(C(=O)C#CC(C)(C)N(C)C)CC3)C(=O)N3CCCC(N3)C(=O)OCC(C)(C)C2)C1 | 117%

Now look at this one.
I have this compound here, CCC(CC)c1cc(NC2CCC(N)C2)n2nccc2n1 (centres undefined) + CCn1c(-c2cccnc2C(C)OC)c2c3cc(ccc31)N1CCOC(CC(NC(=O)C(C(C)C)N(C)C(=O)C3(F)CCN(C(=O)C#CC(C)(C)N(C)C)CC3)C(=O)N3CCCC(N3)C(=O)OCC(C)(C)C2)C1 , and I need its recorded viability, T/C.
12.7%

====

System: 966289-007-R4-J1-PDC complex spheroid viability
Experiment: Anticancer human tumor 966289-007-R4-J1-PDC cell line growth inhibition [RAS]; active means viability on the fitted dose curve at most 10% of control; inactive means the rest;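 note: spheroids exposed to agents for one week before readout; percent viability relative to DMSO vehicle control wells as 100%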
Conditions: second compound 0.3 µM; first compound 0.316 µM
Hi! Could you answer with just one of these? t = active, f = inactive

How did this test come out for CCC(CC)c1cc(NC2CCC(N)C2)n2nccc2n1 (stereo not given) + CCn1c(-c2cccnc2C(C)OC)c2c3cc(ccc31)N1CCOC(CC(NC(=O)C(C(C)C)N(C)C(=O)C3(F)CCN(C(=O)C#CC(C)(C)N(C)C)CC3)C(=O)N3CCCC(N3)C(=O)OCC(C)(C)C2)C1 ?
f

How did this test come out for CC(=O)OC12COC1CC(O)C1(C)C(=O)C(O)C3=C(C)C(OC(=O)C(O)C(NC(=O)OC(C)(C)C)c4ccccc4)CC(O)(C(OC(=O)c4ccccc4)C21)C3(C)C (stereo not given) + CCn1c(-c2cc(N3CCN(C)CC3)cnc2C(C)OC)c2c3cc(ccc31)-c1csc(n1)CC(NC(=O)C1CC1C)C(=O)N1CCCC(N1)C(=O)OCC(C)(C)C2 ?
f

How did this test come out for C=CC(=O)Nc1cc(Nc2nccc(-c3cn(C)c4ccccc34)n2)c(OC)cc1N(C)CCN(C)C + CCn1c(-c2cccnc2C(C)OC)c2c3cc(ccc31)N1CCOC(CC(NC(=O)C(C(C)C)N(C)C(=O)C3(F)CCN(C(=O)C#CC(C)(C)N(C)C)CC3)C(=O)N3CCCC(N3)C(=O)OCC(C)(C)C2)C1 ?
f

How did this test come out for C=CC(=O)N1CCN(c2nc(OCC3CCCN3C)nc3c(F)c(-c4nc(N)cc(C)c4C(F)(F)F)c(Cl)cc23)C(C)C1 (stereo not given) + CCn1c(-c2cc(N3CCN(C)CC3)cnc2C(C)OC)c2c3cc(ccc31)-c1csc(n1)CC(NC(=O)C1CC1C)C(=O)N1CCCC(N1)C(=O)OCC(C)(C)C2 ?
f

====

Test system: 966289-007-R4-J1-PDC complex spheroid viability
Assay: Anticancer human tumor 966289-007-R4-J1-PDC cell line growth inhibition [RAS];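 note: spheroids exposed to agents for one week before readout; percent viability relative to DMSO vehicle control wells as 100%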
Details: second compound 0.3 µM; first compound 0.000949 µM; hits give low values
METRIC: viability, T/C (%)
Could you give me the number in %? Just the number is fine.

Past entries and their recorded results:
CCc1c2c(nc3ccc(O)cc13)-c1cc3c(c(=O)n1C2)COC(=O)[C@]3(O)CC + CCn1c(-c2cc(N3CCN(C)CC3)cnc2C(C)OC)c2c3cc(ccc31)-c1csc(n1)CC(NC(=O)C1CC1C)C(=O)N1CCCC(N1)C(=O)OCC(C)(C)C2 | 62.1
CC1(C)CCC(Nc2ncc(C(F)(F)F)c(-c3c[nH]c4c(P(C)(C)=O)c(C#N)ccc34)n2)CN1 (centres undefined) + CCn1c(-c2cc(N3CCN(C)CC3)cnc2C(C)OC)c2c3cc(ccc31)-c1csc(n1)CC(NC(=O)C1CC1C)C(=O)N1CCCC(N1)C(=O)OCC(C)(C)C2 | 128
CC1(C)CCC(Nc2ncc(C(F)(F)F)c(-c3c[nH]c4c(P(C)(C)=O)c(C#N)ccc34)n2)CN1 (centres undefined) + CCn1c(-c2cccnc2C(C)OC)c2c3cc(ccc31)N1CCOC(CC(NC(=O)C(C(C)C)N(C)C(=O)C3(F)CCN(C(=O)C#CC(C)(C)N(C)C)CC3)C(=O)N3CCCC(N3)C(=O)OCC(C)(C)C2)C1 | 62.6

Now look at this one.
I have this compound here, CCc1c2c(nc3ccc(O)cc13)-c1cc3c(c(=O)n1C2)COC(=O)[C@]3(O)CC + CCn1c(-c2cccnc2C(C)OC)c2c3cc(ccc31)N1CCOC(CC(NC(=O)C(C(C)C)N(C)C(=O)C3(F)CCN(C(=O)C#CC(C)(C)N(C)C)CC3)C(=O)N3CCCC(N3)C(=O)OCC(C)(C)C2)C1 , and I need its recorded viability, T/C.
18.4

====

Tested on: 966289-007-R4-J1-PDC complex spheroid viability
Test: Anticancer human tumor 966289-007-R4-J1-PDC cell line growth inhibition [RAS];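 note: spheroids exposed to agents for one week before readout; percent viability relative to DMSO vehicle control wells as 100%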
Conditions: second compound 1 µM; first compound 0.000949 µM; hits give low values
METRIC: viability, T/C (%)
Could you give me the number in %? Just the number is fine.

CC1(C)CCC(Nc2ncc(C(F)(F)F)c(-c3c[nH]c4c(P(C)(C)=O)c(C#N)ccc34)n2)CN1 (centres undefined) + C#Cc1c(F)ccc2cc(O)cc(-c3ncc4c(N5CC6CCC(C5)N6)nc(OCC56CCCN5CC(F)C6)nc4c3F)c12 | 106
CCc1c2c(nc3ccc(O)cc13)-c1cc3c(c(=O)n1C2)COC(=O)[C@]3(O)CC + C=CC(=O)N1CCN(c2nc(OCC3CCCN3C)nc3c(F)c(-c4nc(N)cc(C)c4C(F)(F)F)c(Cl)cc23)C(C)C1 | 58.1
CCc1c2c(nc3ccc(O)cc13)-c1cc3c(c(=O)n1C2)COC(=O)[C@]3(O)CC + C#Cc1c(F)ccc2cc(O)cc(-c3ncc4c(N5CC6CCC(C5)N6)nc(OCC56CCCN5CC(F)C6)nc4c3F)c12 | 77.1

I have this molecule here, CC1(C)CCC(Nc2ncc(C(F)(F)F)c(-c3c[nH]c4c(P(C)(C)=O)c(C#N)ccc34)n2)CN1 (centres undefined) + C=CC(=O)N1CCN(c2nc(OCC3CCCN3C)nc3c(F)c(-c4nc(N)cc(C)c4C(F)(F)F)c(Cl)cc23)C(C)C1 , and I need its recorded viability, T/C.
113

====

Tested on: 966289-007-R4-J1-PDC complex spheroid viability
Assay: Anticancer human tumor 966289-007-R4-J1-PDC cell line growth inhibition [RAS]; active means viability on the fitted dose curve at most 10% of control; inactive means the rest;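 note: spheroids exposed to agents for one week before readout; percent viability relative to DMSO vehicle control wells as 100%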
Conditions: second compound 0.01 µM; first compound 3.16 µM
Hi! Could you answer with just one of these? y = active, n = inactive

Examples from the recorded data:
CC1(O)CCCC1n1c(=O)c(C(F)F)cc2cnc(NC3CCN(S(C)(=O)=O)CC3)nc21 (stereo unspecified) + C=CC(=O)N1CCN(c2nc(OCC3CCCN3C)nc3c(F)c(-c4nc(N)cc(C)c4C(F)(F)F)c(Cl)cc23)C(C)C1 | n
C[C@@H](NC(=O)c1ncnc(N)c1Cl)c1ncc(C(=O)Nc2cc(C(F)(F)F)c(Cl)cn2)s1 + C=CC(=O)N1CCN(c2nc(OCC3CCCN3C)nc3c(F)c(-c4nc(N)cc(C)c4C(F)(F)F)c(Cl)cc23)C(C)C1 | n
Cc1nc(N2CCC3(CC2)COC(C)C3N)c(CO)nc1Sc1ccnc(N)c1Cl (stereo unspecified) + C=CC(=O)N1CCN(c2nc(OCC3CCCN3C)nc3c(F)c(-c4nc(N)cc(C)c4C(F)(F)F)c(Cl)cc23)C(C)C1 | n
CC(Nc1ccc2c(c1)OCCn1cc(N3C(=O)OCC3C(F)F)nc1-2)C(N)=O (stereo unspecified) + C=CC(=O)N1CCN(c2nc(OCC3CCCN3C)nc3c(F)c(-c4nc(N)cc(C)c4C(F)(F)F)c(Cl)cc23)C(C)C1 | n
CC(C)NCC(C(=O)N1CCN(c2ncnc3c2C(C)CC3O)CC1)c1ccc(Cl)cc1 (stereo unspecified) + C=CC(=O)N1CCN(c2nc(OCC3CCCN3C)nc3c(F)c(-c4nc(N)cc(C)c4C(F)(F)F)c(Cl)cc23)C(C)C1 | n

Lab note: next molecule to report on.
How did this test come out for CCC(CC)c1cc(NC2CCC(N)C2)n2nccc2n1 (stereo unspecified) + C=CC(=O)N1CCN(c2nc(OCC3CCCN3C)nc3c(F)c(-c4nc(N)cc(C)c4C(F)(F)F)c(Cl)cc23)C(C)C1 ?
y
